Target: KasQ (Streptomyces kasugaensis, UniProt A0A0K1H2R6)
Sequence (A0A0K1H2R6 entry or part of it): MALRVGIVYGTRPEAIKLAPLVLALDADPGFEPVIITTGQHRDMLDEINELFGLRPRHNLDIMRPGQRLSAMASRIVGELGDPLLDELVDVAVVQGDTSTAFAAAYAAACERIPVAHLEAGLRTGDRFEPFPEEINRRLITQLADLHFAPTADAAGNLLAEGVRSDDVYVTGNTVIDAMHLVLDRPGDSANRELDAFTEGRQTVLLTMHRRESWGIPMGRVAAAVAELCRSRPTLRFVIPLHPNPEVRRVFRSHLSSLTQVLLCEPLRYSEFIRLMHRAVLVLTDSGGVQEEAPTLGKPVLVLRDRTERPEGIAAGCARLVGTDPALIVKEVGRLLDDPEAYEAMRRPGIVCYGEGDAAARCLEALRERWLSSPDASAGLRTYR
Experiment: Isothermal titration calorimetry (ITC) of KasQ wild type versus substrates;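 also: titration of 1 mM substrate into 0.1 mM KasQ, 18 injections spaced 120 s, data fitted to a single-site binding model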
Assay type: binding
Conditions: ITC; KasQ wild type
Exercise: state measured ∆G for each of the compounds provided.
Number only, in kcal/mol; omit the unit.

Fill in ∆G for record "Cc1cn([C@H]2C[C@H](O)[C@@H](COP(=O)(O)OP(=O)(O)O[C@H]3O[C@H](CO)[C@@H](O)[C@H](O)[C@H]3O)O2)c(=O)[nH]c1=O"
-6.273

Fill in ∆G for record "O=c1ccn([C@@H]2O[C@H](COP(=O)(O)OP(=O)(O)O)[C@@H](O)[C@H]2O)c(=O)[nH]1"
-6.128

Fill in ∆G for record "CC(=O)N[C@H]1[C@@H](OP(=O)(O)OP(=O)(O)OC[C@H]2O[C@@H](n3ccc(=O)[nH]c3=O)[C@H](O)[C@@H]2O)O[C@H](CO)[C@H](O)[C@@H]1O"
-4.742
